- TESTED_SYSTEM: full-length B-Catenin (Uniprot ID P35222) (Homo sapiens)
- Construct: 65 nM full-length B-Catenin (Uniprot ID P35222)
- Sequence (P35222 whole entry): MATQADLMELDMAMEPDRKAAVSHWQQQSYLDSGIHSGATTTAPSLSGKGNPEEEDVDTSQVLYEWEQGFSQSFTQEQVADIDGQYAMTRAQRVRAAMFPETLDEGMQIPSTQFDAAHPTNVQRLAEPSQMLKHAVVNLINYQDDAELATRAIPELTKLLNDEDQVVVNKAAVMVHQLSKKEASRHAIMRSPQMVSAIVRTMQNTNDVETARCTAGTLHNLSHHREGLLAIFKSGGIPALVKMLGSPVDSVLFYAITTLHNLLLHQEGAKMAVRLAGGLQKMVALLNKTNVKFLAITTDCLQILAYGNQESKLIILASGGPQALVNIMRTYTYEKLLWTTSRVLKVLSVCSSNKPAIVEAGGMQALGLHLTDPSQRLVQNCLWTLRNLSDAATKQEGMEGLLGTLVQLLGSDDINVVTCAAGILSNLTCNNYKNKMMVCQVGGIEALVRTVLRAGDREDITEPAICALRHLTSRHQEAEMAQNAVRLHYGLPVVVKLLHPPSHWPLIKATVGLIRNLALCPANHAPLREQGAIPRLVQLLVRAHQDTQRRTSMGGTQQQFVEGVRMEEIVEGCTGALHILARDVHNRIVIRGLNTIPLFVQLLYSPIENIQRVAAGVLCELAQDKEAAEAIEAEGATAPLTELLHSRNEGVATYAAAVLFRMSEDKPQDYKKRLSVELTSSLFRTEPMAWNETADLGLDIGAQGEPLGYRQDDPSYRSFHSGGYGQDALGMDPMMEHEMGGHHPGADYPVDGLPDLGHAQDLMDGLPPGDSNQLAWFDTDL
- TEST_PROTOCOL: Alphascreen binding assay (beta-catenin / biotin-TCF4 10-53)
Attribute: EC50
Numbers only here, please. The scale is nM.

>  <COMPOUND>
CC(=O)N1CCC[C@]12CC=CCCCC1(CCCC=CCCCCCC[C@@](C)(C(=O)N[C@@H](Cc3cccc4ccccc34)C(=O)N[C@@H](Cc3c[nH]c4ccccc34)C(=O)N[C@@H](CCC(N)=O)C(N)=O)NC(=O)[C@H](C(C)C)NC(=O)[C@H](Cc3ccccc3)NC(=O)[C@H](C)NC(=O)[C@H](C)NC(=O)[C@H](CC(=O)O)NC(=O)[C@H](CC(=O)O)NC1=O)NC(=O)[C@H](C)NC(=O)[C@H](CC(=O)O)NC2=O (stereo partly drawn)

>  <READOUT_UNITS>
nM

>  <EC50>
329

$$$$

Report EC50 for CC(=O)N1CCC[C@]12CC=CCCCC1(CCCC=CCCCCCC[C@@](C)(C(=O)N[C@@H](Cc3ccccc3)C(=O)N[C@@H](Cc3c[nH]c4ccccc34)C(=O)NC(C)(C)C(N)=O)NC(=O)[C@H](C(C)C)NC(=O)[C@H](Cc3ccccc3)NC(=O)[C@H](C)NC(=O)[C@H](C)NC(=O)[C@H](CCC(=O)O)NC(=O)[C@H](CC(=O)O)NC1=O)NC(=O)[C@H](C)NC(=O)[C@H](CC(=O)O)NC2=O (stereo partly drawn) [I-133] please.
495

Report EC50 for CC(=O)N1CCC[C@]12CC=CCCCC1(CCCC=CCCCCCC[C@@](C)(C(=O)N[C@@H](Cc3cccc(C(F)(F)F)c3)C(=O)N[C@@H](Cc3c[nH]c4ccccc34)C(=O)N[C@@H](CCC(N)=O)C(N)=O)NC(=O)[C@H](C(C)C)NC(=O)[C@H](Cc3ccccc3)NC(=O)[C@H](C)NC(=O)[C@H](C)NC(=O)[C@H](CC(=O)O)NC(=O)[C@H](CC(=O)O)NC1=O)NC(=O)[C@H](C)NC(=O)[C@H](CC(=O)O)NC2=O (stereo partly drawn) [I-250] please.
1200

* * *

- TESTED_SYSTEM: full-length beta-Catenin (Uniprot ID P35222) (Homo sapiens, UniProt P35222)
- Construct: 10 nM full-length beta-Catenin (Uniprot ID P35222)
- TEST_PROTOCOL: Fluorescence polarization IC50 (beta-catenin / 5FAM-TCF4 10-53 competition)
- Assay type: binding
- SETUP_CONDITIONS: fluorescence polarization; read-out: beta-Catenin FP IC50
PROPERTY_LABEL: pIC50
In textbook form, pIC50 equals minus log to base ten of the concentration in mol/L.

Report pIC50 for CC(=O)N1CCC[C@H]1C(=O)N[C@]1(C)CCCCCCCCC2(CCCCCCCCOC(=O)N3CC[C@@](C(=O)N[C@@H](Cc4ccccc4C(F)(F)F)C(=O)N[C@@H](Cc4csc5ccccc45)C(=O)N[C@@H](CCC(N)=O)C(N)=O)(C3)NC(=O)[C@H](CC(C)C)NC(=O)[C@H](Cc3ccccc3)NC(=O)[C@H](C)NC(=O)[C@H](C)NC(=O)[C@H](Cc3cccc(C(=O)O)c3)NC(=O)[C@H](CC(=O)O)NC2=O)NC(=O)[C@H](CC(C)(C)C)NC(=O)[C@H](CC(=O)O)NC1=O (stereo partly shown) please.
6.63

All figures here come from patent US20240116985A1.
